Origin of values: PubChem BioAssay AID1996

# test settings: buffer; pH 7.4; 200.0 µM
Label scheme for solubility kinetic: lower than 40 µg/mL is 0 (no), 40 µg/mL and above is 1 (yes).

Past entries and their recorded results:
- compound: "Cc1ccc(C(=O)COC(=O)c2cn3ccccc3n2)cc1"
  assigned class: "0 (no)"
- compound: "COc1ccc(C(CNC(=O)c2cc3c(s2)CCCC3)N2CCOCC2)cc1 (stereo unspecified)"
  assigned class: "0 (no)"
- compound: "O=C(NCC(c1ccco1)N1CCCCC1)c1cccs1 (stereo unspecified)"
  assigned class: "1 (yes)"
- compound: "O=C(CCc1c[nH]c2ccccc12)NCCOc1ccccc1"
  assigned class: "1 (yes)"
- compound: "O=C(CN1CCCC1c1cccs1)Nc1cc(S(=O)(=O)N2CCCC2)ccc1Cl (stereo unspecified)"
  assigned class: "0 (no)"

Check this compound for solubility kinetic at or above 40 µg/mL: `O=C(Nc1c(S(=O)(=O)c2ccccc2)csc1Br)c1ccccc1Cl` 1 (yes)

====

# test settings: buffer; pH 7.4; 200.0 µM
Short version: solubility kinetic at least 20 µg/mL is yes, less is no.

- compound: "NC1=NC(=O)C(Cc2ccc(F)cc2)S1 (configuration not stated)"
  assigned class: "yes"
- compound: "CC(=O)Nc1ccc(S(=O)(=O)c2cc(O)ccc2O)cc1"
  assigned class: "yes"
- compound: "O=c1[nH]c(/C=C/c2cccc(Br)c2)nc2ccccc12"
  assigned class: "no"
- compound: "CCNC(=O)c1ccccc1NC(=O)C1CC(=O)N(C(C)C)C1 (configuration not stated)"
  assigned class: "yes"
- compound: "O=C(CN1C(=O)NC2(CCc3ccccc32)C1=O)c1cccs1 (configuration not stated)"
  assigned class: "yes"
- compound: "Oc1ccccc1C=NCCCCCCN=Cc1ccccc1O"
  assigned class: "yes"

Shift focus to the following entry.
Reported solubility kinetic at or above 20 µg/mL? `COc1ccc(NC(=O)Cn2cnc3ccccc3c2=O)cc1OC` no

====

# test settings: buffer; pH 7.4; 200.0 µM
Quick reference: solubility kinetic of the listed items.
Field: numeric (µg/mL). Do not append units.

Consider the worked cases shown below.
- molecule: "CC(C)(C)N=C1C([N+](=O)[O-])=CC=C2C1=NC1(CCCCC1)N2O"
  readout: "solubility kinetic"
  endpoint value: 45.3
- molecule: "CC(C)[C@H](NC(=O)OCc1ccccc1)C(=O)OCC(=O)c1ccccc1"
  readout: "solubility kinetic"
  endpoint value: 16.1
- molecule: "Cc1cccc(C(=O)Nc2scc(-c3ccc(Br)cc3)c2C(=O)O)c1"
  readout: "solubility kinetic"
  endpoint value: 3.6
- molecule: "CC1CC(C)CN(S(=O)(=O)c2ccc(C(=O)N(C)Cc3ccccc3)cc2)C1 (stereo not drawn)"
  readout: "solubility kinetic"
  endpoint value: 13.7
- molecule: "CC(CCc1ccccc1)NC(=O)c1cnc(Cl)c(Cl)c1 (stereo not drawn)"
  readout: "solubility kinetic"
  endpoint value: 5.5
- molecule: "Cc1[nH]c2c([N+](=O)[O-])cccc2c1C"
  readout: "solubility kinetic"
  endpoint value: 1.2
- molecule: "COCc1cc(SC2CCCCC2)nc(C)n1"
  readout: "solubility kinetic"
  endpoint value: 11.7
- molecule: "O=C1Nc2cc3c(cc2C1=O)sc1ccccc13"
  readout: "solubility kinetic"
  endpoint value: 3.1

Given the entry `N/C(CCS(=O)(=O)c1ccc(Cl)cc1)=N\OC(=O)c1ccccc1Cl` , report its measured solubility kinetic. 41.6

Field entry: `Cc1ccc(O)c(CNc2cccc(C)n2)c1` 22.5

====

# test settings: buffer; pH 7.4; 200.0 µM
In this section we review reported solubility kinetic values for a set of molecules.

What solubility kinetic value was documented for this molecule, `COc1ccc(NC(=O)c2cc3cc(OC)ccc3oc2=O)cc1` ? < 0.0007 mg/mL

Please give the result for `O=C(O)CCC(=O)N1CCC[C@H]1C(=O)O` too. > 0.0323 mg/mL

====

# test settings: buffer; pH 7.4; 200.0 µM
readout: log10 solubility kinetic (log10 of the value in µg/mL)
The figures below represent log10 of solubility kinetic, where solubility kinetic is stated in µg/mL.

// worked examples, log10 solubility kinetic included
- compound: "COCC(=O)N(Cc1cc2cc(C)ccc2[nH]c1=O)c1cccc(C)c1C"
  endpoint value: 1.09
- compound: "COc1cc(OC)cc(C(=O)NCCCCc2ccccc2)c1"
  endpoint value: 0.11
- compound: "CSc1nc2ccc(NC(=O)COc3ccccc3F)cc2s1"
  endpoint value: 0.34
- compound: "Cc1cc(C(=O)CN2C(=O)C(=O)N(Cc3ccccc3)C2=O)c(C)n1Cc1ccccc1"
  endpoint value: 0.60
- compound: "O=Cc1c(NCc2ccc(F)cc2)c2ccccc2[nH]c1=O"
  endpoint value: 0.41
- compound: "CC(C)CCC1(C)NC(=O)N(CC(=O)c2ccc[nH]2)C1=O (stereo not drawn)"
  endpoint value: 1.56
- compound: "N#Cc1c(N)nc2c(c1-c1ccc(F)cc1)c(=O)nc1sccn12"
  endpoint value: 0.76
- compound: "N#Cc1c(F)cccc1NCc1cccs1"
  endpoint value: 0.11
- compound: "Cc1cc(C)cc(OCC(=O)OCC(=O)NC2CCCC2)c1"
  endpoint value: 1.59
- compound: "CNC(=O)OCCSCCS(=O)(=O)c1ccc(Cl)cc1"
  endpoint value: 1.22

I'd like to know its log10 solubility kinetic. The compound in question is `O=C(Nc1ccccn1)c1ccc(C(=O)Nc2ccccn2)cc1` -0.30

====

# test settings: buffer; pH 7.4; 200.0 µM
solubility kinetic for assorted compounds
Report only the number, with the unit µg/mL understood.

Previously resolved entries follow.
- compound: "CCN(CC)CCNC(=O)C(Oc1ccccc1)Oc1ccccc1"
  unit: "µg/mL"
  endpoint value: 45.8
- compound: "CC(C)(C)CC(=O)Nc1ccc(-c2cn3cccnc3n2)cc1"
  unit: "µg/mL"
  endpoint value: 40.3

Switching to the query record.
Name the recorded solubility kinetic for COc1ccc(OC)c(C(C)NC(=O)C23CC4CC(CC(C4)C2)C3)c1 (stereo unspecified) . 0.8

====

// reported solubility kinetic per item
# test settings: buffer; pH 7.4; 200.0 µM

May I ask what solubility kinetic has been recorded for CCC1Sc2ccccc2N(CC(=O)NC2CCCCC2)C1=O (stereo not given) ? > 0.0499 mg/mL

`CNC(=S)N(CCc1c(C)[nH]c2ccccc12)Cc1cccnc1` , same question. > 0.0508 mg/mL

Same again, this time with `NC(=S)Nc1ccc(Cl)cc1Cl` 0.0329 mg/mL

Another compound: `COc1ccc(CC(=O)Nc2ccccc2N2CCCCC2)cc1OC` 0.0307 mg/mL

Try Cc1ccc(Cl)cc1N1CCN(CC(O)COC(C)C)CC1.Cl (stereo not given) next. > 0.0545 mg/mL

Item: `CC1=CC(=O)C(C(C)C)=C/C1=N/OS(=O)(=O)c1ccccc1` 0.0079 mg/mL

// next record `Cl.c1ccc(NCc2cccc3ccccc23)nc1` 0.0041 mg/mL

Request: `COc1ccc(C(=O)NC(=S)N2CCOCC2)cc1[N+](=O)[O-]` > 0.0488 mg/mL

For `Cc1c(C(=O)NN2CCOCC2)cccc1[N+](=O)[O-]` then? > 0.0398 mg/mL

What do we get for CC(=O)Nc1ccc(OCC(O)Cn2nc(C)c(C)c2C)cc1 (stereo not given) ? > 0.0476 mg/mL

Same again, this time with `CCN(CC)Cc1c(O)ccc2c(=O)c(-c3ccccc3OC)coc12` > 0.053 mg/mL

Follow-up entry: `COc1ccc(C(=O)Cn2cc([N+](=O)[O-])nc2C)cc1` 0.0135 mg/mL

Also `COc1cccc(NC(=S)N2CCC(Cc3ccccc3)CC2)c1` , if possible. 0.0055 mg/mL

Moving on to the next compound: `Cc1c(O)ccc2c(CN3CCOCC3)cc(=O)oc12` > 0.0413 mg/mL

Same question for Cc1ccc(S(=O)(=O)N(C)C)cc1NC(=O)C(C)OC(=O)c1cc[n+]([O-])cc1 (stereo not given) please. > 0.0611 mg/mL

Another: O=C(NC1CCC(O)CC1)c1ccc(Br)o1 (stereo not given) > 0.0432 mg/mL

Next: COC(=O)c1[nH]c2ccccc2c1NC(=O)C(C)N1CCOCC1 (stereo not given) > 0.0497 mg/mL

Now consider `C/C(=N\O)C(C)(C)Nc1ccc(Br)cc1` . > 0.0407 mg/mL

====

# test settings: buffer; pH 7.4; 200.0 µM
// reported log10 of solubility kinetic per item
The common logarithm of solubility kinetic in µg/mL is what is listed.

Here's what some known entries look like.
- compound: "CC(=O)Nc1nc(-c2cccc3ccccc23)cs1"
  log10 of solubility kinetic: 0.72
- compound: "CC(Sc1ncnc2sc(-c3ccccc3)cc12)C(N)=O (configuration not stated)"
  log10 of solubility kinetic: -0.10
- compound: "O=C1CCC(=O)N1c1ccc(S(=O)(=O)N2CCCC2)cc1"
  log10 of solubility kinetic: 1.66
- compound: "COc1ccc(-c2cn3ccc(C)cc3n2)cc1"
  log10 of solubility kinetic: 1.52
- compound: "COc1ccc2nc(C)c3c(c2c1)OC(C(C)(Cl)Br)C3 (configuration not stated)"
  log10 of solubility kinetic: 0.60

Continue with the next compound.
Consider the compound shown here: `N#C/C(=C\c1cccc([N+](=O)[O-])c1)c1ccccn1` What is its recorded log10 of solubility kinetic? 0.56
